Each entry below carries its reported IC50.
system under test: Fatty-acid amide hydrolase 1 (Mus musculus, UniProt O08914)
Sequence (O08914 whole entry): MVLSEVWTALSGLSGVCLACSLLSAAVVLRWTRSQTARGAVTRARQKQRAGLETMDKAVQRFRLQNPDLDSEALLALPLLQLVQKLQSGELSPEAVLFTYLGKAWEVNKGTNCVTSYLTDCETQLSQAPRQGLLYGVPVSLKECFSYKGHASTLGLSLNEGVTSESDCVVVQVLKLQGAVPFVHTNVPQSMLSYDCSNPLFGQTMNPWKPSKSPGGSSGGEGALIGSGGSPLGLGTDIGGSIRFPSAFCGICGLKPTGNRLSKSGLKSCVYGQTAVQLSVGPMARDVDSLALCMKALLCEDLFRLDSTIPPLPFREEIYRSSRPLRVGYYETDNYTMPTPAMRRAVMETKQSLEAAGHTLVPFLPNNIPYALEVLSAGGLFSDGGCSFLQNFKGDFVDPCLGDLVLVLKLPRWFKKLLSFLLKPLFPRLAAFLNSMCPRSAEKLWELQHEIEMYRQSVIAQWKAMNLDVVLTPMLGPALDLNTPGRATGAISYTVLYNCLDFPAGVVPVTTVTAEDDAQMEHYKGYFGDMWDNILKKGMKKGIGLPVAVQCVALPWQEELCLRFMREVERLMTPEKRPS
test name: Inhibition of FP-rhodamine probe binding to FAAH in mouse brain membrane proteome preincubated for 1 hr followed by FP-rhodamine addition and measured after 30 mins by SDS-PAGE based fluorescence assay
Could you give me the number in µM? Just the number is fine.

Here are 5 compounds together with their reported answers.
[[record]]
given_smiles = "O=C(N1CCN(Cc2ccc3ccccc3c2)CC1)n1cccn1"
quantity_measured = "IC50"
u = "µM"
obs_value = 0.09

[[record]]
given_smiles = "Cc1cnn(C(=O)N2CCCCC2)c1"
quantity_measured = "IC50"
u = "µM"
obs_value = 2.2

[[record]]
given_smiles = "Cc1cnn(C(=O)N(C)CCN(C)Cc2cccc(OCc3ccccc3)c2)c1"
quantity_measured = "IC50"
u = "µM"
obs_value = 9

[[record]]
given_smiles = "CN(CCN(C)C(=O)n1cc(C#N)cn1)Cc1ccc(OCc2ccccc2)cc1"
quantity_measured = "IC50"
u = "µM"
obs_value = 0.12

[[record]]
given_smiles = "Cc1cnn(C(=O)N2CCCN(Cc3ccc(OCc4ccccc4)cc3)CC2)c1"
quantity_measured = "IC50"
u = "µM"
obs_value = 0.56


Query block: Consider the compound "CN(CCN(C)C(=O)n1cccn1)Cc1cccc(OCc2ccccc2)c1" and give its measured IC50.
Result block: 3
